Data credit: ChEMBL document CHEMBL1201862

Tested on: MOLT-4
EXPERIMENTAL_DETAILS: NCI tumour cell line growth inhibition, 48 h
Activity calls are given as the source filed them. Cut-off read from the data, not from the text of the source: active = GI50 up to about 1.1 µM and inactive = higher.
Use one of these outcomes when replying: yes for active, no for inactive

Would you please look over these solved cases?
# COMPOUND, CLASS_ASSIGNMENT
measured = [
    ("COc1cc(/C=N/c2ccc(S(N)(=O)=O)cc2)cc(OC)c1", "no"),
    ("Cc1cnc2c(c1)C(=O)N(c1ccc(Br)cc1)S2(=O)=O", "no"),
    ("COc1cc2c3c(cc(Cl)nc3c1OC)C(O)(CC(=O)c1ccccc1)C(=O)N2 (stereo not given)", "no"),
    ("O=C(c1c2c(cc3c1CC1(Cc4cc5c(cc4C1)CCCC5)C3)CCCC2)C(Br)Br", "no"),
    ("C/C(CC(=O)Nc1cc(C)ccc1C)=N\\NC(=O)c1ccncc1", "no"),
]

Query: // return assay outcome for CC(C)C(NC(=O)Oc1ccccc1)C(=O)NC1c2c(Br)sc(Br)c2C(=O)C1O (stereo not given)
Result: no

Query: // return assay outcome for c1ccc2c(c1)nc1n2CNC1
Result: no

Query: // return assay outcome for COc1cc(C2S/C(=C/c3ccccc3)C(=O)N2c2ccc(NC(C)=O)cc2)cc(OC)c1OC (stereo not given)
Result: no
